Please go through the items and note down their inhibition.
# Method: inhibitors of the yeast RAM network, pilot screen, dse1pr::URA3 reporter, 5-FOA selection (AID 869);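 note: 0% = DMSO wells with no growth and 100% = 10 µM 1-NA-PP1 with full growth; RAM network block rescues cells from 5-FOA so hits raise OD615 growth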
# Condition Info: S. cerevisiae dse1pr::URA3 5-FOA growth, OD615, 2 d; at 10 µM; hits give high values; strain carries analog-sensitive mutant Cbk1 kinase
Only the number, expressed in %, is required.

Query: inhibition; subject: CC(C)(C)c1ccc(S(=O)(=O)N2CCCCC2C(=O)NCc2ccccn2)cc1 (stereo not drawn) 0.13

# repeat for "Cn1c(Cn2c(=O)sc3ccccc32)nnc1SCC(=O)N1CCN(c2ccccc2)CC1" 0.04

# repeat for "COC(=O)c1ccc(Nc2cc(C)nc3nc(C)nn23)cc1" 1.67

# repeat for CCC(C)NC(=O)C1CCN(S(=O)(=O)c2cccc3cccnc23)CC1 (stereo not drawn) 2.05

# repeat for N#CC(c1nc2ccccc2nc1N1CCCC1)S(=O)(=O)c1ccccc1 (stereo not drawn) 0.815

# repeat for "Cc1nnc(Sc2nc3c(c(=O)[nH]c(=O)n3C)n2CCCc2ccccc2)s1" 1.21

# repeat for "CCCSC1=N/C(=C\c2ccsc2)C(=O)S1" 0.72

# repeat for "c1ccc2c(c1)CCCN2c1nc2ccccc2n2cnnc12" 1.44

# repeat for "Cc1nc2scc(-c3cccs3)c2c(=O)o1" 1.73

# repeat for "CCOC(=O)N1CCC(Nc2cc(C)nc3c(-c4ccccc4OC)c(C)nn23)CC1" 0.325

# repeat for "Cn1c(=O)c2c(nc(CN3CCOCC3)n2CCc2ccccc2)n(C)c1=O" 1.48

# repeat for CCOC(=O)C1CCN(C(=O)C2c3ccccc3C(=O)N(C)C2c2ccc(OC)cc2)CC1 (stereo not drawn) 2.1

# repeat for "Cc1ccccc1-c1nnc(-c2ccccc2)o1" 1.82

# repeat for "O=C(Oc1ccccc1)c1cccc(N2C(=O)CCC2=O)c1" 1.27

# repeat for "CC1(C)CC(=O)c2sc(NC(=O)c3ccco3)nc2C1" 0.735

# repeat for "Cc1sc2ncn(CC(=O)NCc3ccccn3)c(=O)c2c1S(=O)(=O)N1CCOCC1" 0.485

# repeat for "O=C(CC(c1ccccc1)c1ccccc1)NCCO" 2.24

# repeat for "O=C(Nc1ccccc1)OCCOc1ccccc1" 2.92

# repeat for "O=C(c1ccc2nc(N3CCOCC3)sc2c1)N1CCN(C(=O)c2ccco2)CC1" 0.86

# repeat for Cc1oc(-c2cccs2)nc1CS(=O)CC(=O)NC1CCCCCC1 (stereo not drawn) -0.045

# repeat for COc1ccc(OCC(O)CN2CCCCC2)cc1 (stereo not drawn) 1.59

# repeat for COc1ccc(C2C(C(=O)N3CCN(c4ccccc4)CC3)c3ccccc3C(=O)N2C)cc1 (stereo not drawn) 2.13

# repeat for "O=c1sc(N2CCN(c3ccccc3F)CC2)nc2ccsc12" 3.63

* * *

# Method: growth suppression of beta-catenin knockout HCT116, pilot screen, human colon tumor cells (AID 823);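 note: 0% = wells killed by 20 µM Hyamine and 100% = untreated DMSO cell wells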
# Condition Info: CellTiter-Glo, 60 h, at 10 µM, hits give low values
Results filed as inconclusive are left out.
Please go through the items and note down their viability.
Only the number, expressed in %, is required.

Query: viability; subject: "CCOC(=O)Cn1c(=O)oc2cc(S(=O)(=O)Nc3cc(Cl)ccc3OC)ccc21" 91.9

# repeat for "CCOc1ccc(-c2nc(C#N)c(N3CCN(Cc4ccccc4)CC3)o2)cc1" 78.6

# repeat for "CCCCN(C)C(=O)c1c[nH]c2ccc(S(=O)(=O)N3CCOCC3)cc2c1=O" 109

# repeat for CC(C)Oc1ccc(N2CC(C(=O)Nc3ccc4c(c3)OCO4)CC2=O)cc1 (stereo unspecified) 106

# repeat for "O=C(CS(=O)(=O)c1cn(Cc2ccccc2Cl)c2ccccc12)N1CCOCC1" 79

# repeat for "Cc1cc(N2CCC(N(C)C3CCCC3)CC2)nc2cc(O)ccc12" 53.9

# repeat for CC1CCCCN1C(=O)c1ccccc1NC(=O)c1ccco1 (stereo unspecified) 94.7

# repeat for COc1cc2c(cc1OC)C(C(=O)N1CCCC1)C(c1ccccc1F)N(C)C2=O (stereo unspecified) 91.3

# repeat for "CCOC(=O)c1nnn(-c2nonc2N)c1CN(C)Cc1ccccc1" 84

# repeat for "O=C(NCCc1ccc(Cl)cc1)c1nnc(Cc2ccc(Cl)cc2)o1" 103

# repeat for "CC(=O)NCC(=O)OCC(=O)c1ccc(C)c(C)c1" 88.8

FYI, the data here is from PubChem BioAssay.
